Quick list: pull-down binding Z-score per entry.
Test system: TO-N3-2 (biotin conjugate)
protocol.summary: pull-down binding Z-score (relative to library population); higher = stronger binding
condition: RNA library: Library-2
observed.property: pull-down binding Z-score

{"columns": ["sequence.entry", "observed.property", "val"],
 "data": [
  ["GCCCUGGGCCGGGCGAUGUCCGCUUGGGGG [hsa-mir-6090]", "pull-down binding Z-score", 1.41],
  ["UGAUGUCACAGAUGUGACUCA", "pull-down binding Z-score", -0.946],
  ["CGGUUGCUUGGUCAGCAAGUGCAUGUCAUGAUGGCAUGGGCUGGCUAACAAUCG [IAV_invivo_NA_6_Motif_7+IAV_invivo_NA_6_Motif_7]", "pull-down binding Z-score", -0.222],
  ["CAAGGCUAUUGAUGGUGGUGUCACUCGUGACAUAGCAUCUACAGAUACUUG [SHAPE_invivo_SARS-CoV-2_Motif_176]", "pull-down binding Z-score", 0.281],
  ["GUGGAAGUGCCCACUGGUUCCA [hsa-mir-194-2]", "pull-down binding Z-score", 1.32],
  ["CCUUCUGUAUACAUGUAUACAGGAGGAAGG [hsa-mir-4716]", "pull-down binding Z-score", 0.00714],
  ["GUCCUGCCCUCACUGGGAACCCCCUUCCCUCUGGGUACCAG [hsa-mir-1324]", "pull-down binding Z-score", 1.39],
  ["UCUCAAAAUAAUUCUGCAGUGAGA [hsa-mir-4524b]", "pull-down binding Z-score", -0.868],
  ["UGGGCACACUUUCUUAUGAACAAUUUAAGAAAGGUGUUCA [SHAPE_invivo_SARS-CoV-2_Motif_116]", "pull-down binding Z-score", -0.779],
  ["CAGAGUGGGCUCACCUCUCGCCCACACUG [hsa-mir-6760]", "pull-down binding Z-score", -0.38],
  ["UUGUGUAUGUACUUAGCUGUACUAUA [hsa-mir-1244-1_1244-4_1244-2_1244-3]", "pull-down binding Z-score", -0.486],
  ["UCUGGGGAGAGAGUCCUCUUUUCAGC [hsa-mir-8082]", "pull-down binding Z-score", 0.614],
  ["GACCAGAAAUCAGCCCGAAUGGUU [IAV_invivo_PB1_2_Motif_17+IAV_invivo_PB1_2_Motif_17]", "pull-down binding Z-score", -0.162],
  ["AAAAAUCUUAGGGAAUUUGUGUUUAAGAAUAUUGAUGGUUAUUUUAAAAUAUAUUCUAAGCACACGCCUAUUAAUUUAGUGCGUGAUCUCCCUCAGGGUUUUU", "pull-down binding Z-score", -0.421],
  ["GAGGCUAUGUACACACCGCAUACAGUCUUACAGGCUGUUGGGGCUUGUGUUCUUUGCAAUUC [SHAPE_invitro_SARS-CoV-2_Motif_296]", "pull-down binding Z-score", 0.485],
  ["GCCCCAUUCCUUGAUCGGCUUCGCCGAGAUCAGAAAUCCCUAAGAGGAAGGGGC [IAV_invivo_NS1_NEP_8_Motif_3+IAV_invivo_NS1_NEP_8_Motif_3]", "pull-down binding Z-score", 0.181],
  ["GCAGUAAGUCUGAUACUUACCUG [U1snRNP5ss-9]", "pull-down binding Z-score", 0.892]
]}

Values from the supplement of paper PMC11865577
